Assay: Determination of solubility in buffers at different pHs (saturated solubility by HPLC)
Assay type: physicochemical
Conditions: thermodynamic from solid; water (pH 6.33), 37° C., 24 hours
Experimental: The solubilities of spirocyclic aryl phosphorus oxides in buffers at different pHs were determined. […] The upper sample was filtered by a filter membrane, the final pH value of the filtrate was measured, and the saturated solubility of the compound was determined by high performance liquid chromatography (HPLC).

# COMPOUND, solubility at 24 h, µg/mL
rows = [
    ("COc1cc(N2CCC3(CCN(C)CC3)CC2)ccc1Nc1ncc(Cl)c(Nc2ccccc2P(C)(C)=O)n1 [spirocyclic aryl phosphorus oxide]", 60),
]

====

Assay: Determination of solubility in buffers at different pHs (saturated solubility by HPLC)
Type: physicochemical
Settings: pH 6.8 phosphate buffer, aqueous buffer, thermodynamic from solid; pH 6.8 buffer (pH 6.83), phosphate, 37° C., 24 hours

# COMPOUND, UNIT LABEL, solubility at 24 h
data = [
    ("COc1cc(N2CCC3(CCN(C)CC3)CC2)ccc1Nc1ncc(Cl)c(Nc2ccccc2P(C)(C)=O)n1 [spirocyclic aryl phosphorus oxide]", "µg/mL", 3600),
]

====

Assay: particle size distribution of raw material samples
Assay type: physicochemical
Below, each entry is listed with its recorded Particle size D90 (μm).
METRIC NAME: Particle size D90 (μm)

# MOLECULE, METRIC NAME, ASSAY RESULT
data = [
    ("COc1cc(N2CCC3(CCN(C)CC3)CC2)ccc1Nc1ncc(Cl)c(Nc2ccccc2P(C)(C)=O)n1 [Sample 5]", "Particle size D90 (μm)", 69),
    ("COc1cc(N2CCC3(CCN(C)CC3)CC2)ccc1Nc1ncc(Cl)c(Nc2ccccc2P(C)(C)=O)n1 [Sample 7]", "Particle size D90 (μm)", 122),
    ("COc1cc(N2CCC3(CCN(C)CC3)CC2)ccc1Nc1ncc(Cl)c(Nc2ccccc2P(C)(C)=O)n1 [Sample 8]", "Particle size D90 (μm)", 193),
    ("COc1cc(N2CCC3(CCN(C)CC3)CC2)ccc1Nc1ncc(Cl)c(Nc2ccccc2P(C)(C)=O)n1 [Sample 3]", "Particle size D90 (μm)", 40.3),
    ("COc1cc(N2CCC3(CCN(C)CC3)CC2)ccc1Nc1ncc(Cl)c(Nc2ccccc2P(C)(C)=O)n1 [Sample 4]", "Particle size D90 (μm)", 62),
    ("COc1cc(N2CCC3(CCN(C)CC3)CC2)ccc1Nc1ncc(Cl)c(Nc2ccccc2P(C)(C)=O)n1 [Sample 1]", "Particle size D90 (μm)", 11.6),
    ("COc1cc(N2CCC3(CCN(C)CC3)CC2)ccc1Nc1ncc(Cl)c(Nc2ccccc2P(C)(C)=O)n1 [Sample 6]", "Particle size D90 (μm)", 79.6),
    ("COc1cc(N2CCC3(CCN(C)CC3)CC2)ccc1Nc1ncc(Cl)c(Nc2ccccc2P(C)(C)=O)n1 [Sample 2]", "Particle size D90 (μm)", 27.1),
]

====

Assay: Determination of solubility in buffers at different pHs (saturated solubility by HPLC)
Format: physicochemical
Conditions: simulated gastric fluid, thermodynamic from solid; 0.1 mol/L HCl (pH 1.02), 37° C., 24 hours
METRIC NAME: solubility at 24 h (mg/mL)

# MOLECULE, METRIC NAME, UNIT LABEL, ASSAY RESULT
records = [
    ("COc1cc(N2CCC3(CCN(C)CC3)CC2)ccc1Nc1ncc(Cl)c(Nc2ccccc2P(C)(C)=O)n1 [spirocyclic aryl phosphorus oxide]", "solubility at 24 h", "mg/mL", 53.4),
]

====

Experiment: Determination of solubility in buffers at different pHs (saturated solubility by HPLC)
Format: physicochemical
Settings: pH 4.5 acetate buffer, aqueous buffer, thermodynamic from solid; pH 4.5 buffer (pH 4.49), acetate, 37° C., 24 hours
Experimental: The solubilities of spirocyclic aryl phosphorus oxides in buffers at different pHs were determined. […] The upper sample was filtered by a filter membrane, the final pH value of the filtrate was measured, and the saturated solubility of the compound was determined by high performance liquid chromatography (HPLC).

# COMPOUND, UNIT LABEL, solubility at 24 h
data = [
    ("COc1cc(N2CCC3(CCN(C)CC3)CC2)ccc1Nc1ncc(Cl)c(Nc2ccccc2P(C)(C)=O)n1 [spirocyclic aryl phosphorus oxide]", "mg/mL", 108),
]

====

Test: particle size distribution of raw material samples
Assay type: physicochemical
In this section we review reported Particle size D10 (μm) values for a set of molecules.
METRIC NAME: Particle size D10 (μm)

# MOLECULE, ASSAY RESULT
data = [
    ("COc1cc(N2CCC3(CCN(C)CC3)CC2)ccc1Nc1ncc(Cl)c(Nc2ccccc2P(C)(C)=O)n1 [Sample 6]", 2.3),
    ("COc1cc(N2CCC3(CCN(C)CC3)CC2)ccc1Nc1ncc(Cl)c(Nc2ccccc2P(C)(C)=O)n1 [Sample 5]", 1.8),
    ("COc1cc(N2CCC3(CCN(C)CC3)CC2)ccc1Nc1ncc(Cl)c(Nc2ccccc2P(C)(C)=O)n1 [Sample 7]", 6.8),
    ("COc1cc(N2CCC3(CCN(C)CC3)CC2)ccc1Nc1ncc(Cl)c(Nc2ccccc2P(C)(C)=O)n1 [Sample 2]", 1.3),
    ("COc1cc(N2CCC3(CCN(C)CC3)CC2)ccc1Nc1ncc(Cl)c(Nc2ccccc2P(C)(C)=O)n1 [Sample 8]", 7.8),
    ("COc1cc(N2CCC3(CCN(C)CC3)CC2)ccc1Nc1ncc(Cl)c(Nc2ccccc2P(C)(C)=O)n1 [Sample 1]", 0.7),
    ("COc1cc(N2CCC3(CCN(C)CC3)CC2)ccc1Nc1ncc(Cl)c(Nc2ccccc2P(C)(C)=O)n1 [Sample 3]", 1.6),
    ("COc1cc(N2CCC3(CCN(C)CC3)CC2)ccc1Nc1ncc(Cl)c(Nc2ccccc2P(C)(C)=O)n1 [Sample 4]", 5.0),
]

====

Experiment: particle size distribution of raw material samples
Type: physicochemical
Each entry gets False if its Particle size D50 (μm) stays under 20 μm, and True if its Particle size D50 (μm) is 20 μm or above.

# MOLECULE, GROUP
records = [
    ("COc1cc(N2CCC3(CCN(C)CC3)CC2)ccc1Nc1ncc(Cl)c(Nc2ccccc2P(C)(C)=O)n1 [Sample 4]", "True"),
    ("COc1cc(N2CCC3(CCN(C)CC3)CC2)ccc1Nc1ncc(Cl)c(Nc2ccccc2P(C)(C)=O)n1 [Sample 2]", "False"),
    ("COc1cc(N2CCC3(CCN(C)CC3)CC2)ccc1Nc1ncc(Cl)c(Nc2ccccc2P(C)(C)=O)n1 [Sample 5]", "False"),
    ("COc1cc(N2CCC3(CCN(C)CC3)CC2)ccc1Nc1ncc(Cl)c(Nc2ccccc2P(C)(C)=O)n1 [Sample 8]", "True"),
    ("COc1cc(N2CCC3(CCN(C)CC3)CC2)ccc1Nc1ncc(Cl)c(Nc2ccccc2P(C)(C)=O)n1 [Sample 3]", "False"),
    ("COc1cc(N2CCC3(CCN(C)CC3)CC2)ccc1Nc1ncc(Cl)c(Nc2ccccc2P(C)(C)=O)n1 [Sample 6]", "False"),
    ("COc1cc(N2CCC3(CCN(C)CC3)CC2)ccc1Nc1ncc(Cl)c(Nc2ccccc2P(C)(C)=O)n1 [Sample 1]", "False"),
    ("COc1cc(N2CCC3(CCN(C)CC3)CC2)ccc1Nc1ncc(Cl)c(Nc2ccccc2P(C)(C)=O)n1 [Sample 7]", "True"),
]

====

Test: Determination of solubility in buffers at different pHs (saturated solubility by HPLC)
Format: physicochemical
Settings: pH 7.5 phosphate buffer, aqueous buffer, thermodynamic from solid; pH 7.5 buffer (pH 7.53), phosphate, 37° C., 24 hours
METRIC NAME: solubility at 24 h (µg/mL)

# MOLECULE, METRIC NAME, UNIT LABEL, ASSAY RESULT
records = [
    ("COc1cc(N2CCC3(CCN(C)CC3)CC2)ccc1Nc1ncc(Cl)c(Nc2ccccc2P(C)(C)=O)n1 [spirocyclic aryl phosphorus oxide]", "solubility at 24 h", "µg/mL", 850),
]

====

Test: Determination of solubility in buffers at different pHs (saturated solubility by HPLC)
Type: physicochemical
Conditions: pH 2.02, simulated gastric fluid, thermodynamic from solid; 0.01 mol/L HCl (pH2.02), 37° C., 24 hours

# COMPOUND, UNIT LABEL, solubility at 24 h
measured = [
    ("COc1cc(N2CCC3(CCN(C)CC3)CC2)ccc1Nc1ncc(Cl)c(Nc2ccccc2P(C)(C)=O)n1 [spirocyclic aryl phosphorus oxide]", "µg/mL", 6900),
]

====

Assay: Determination of solubility in buffers at different pHs (saturated solubility by HPLC)
Assay type: physicochemical
Settings: pH 3.5 acetate buffer, aqueous buffer, thermodynamic from solid; pH 3.5 buffer (pH 3.53), acetate, 37° C., 24 hours
Protocol: The solubilities of spirocyclic aryl phosphorus oxides in buffers at different pHs were determined. […] The upper sample was filtered by a filter membrane, the final pH value of the filtrate was measured, and the saturated solubility of the compound was determined by high performance liquid chromatography (HPLC).
METRIC NAME: solubility at 24 h (mg/mL)

# COMPOUND, ASSAY RESULT
data = [
    ("COc1cc(N2CCC3(CCN(C)CC3)CC2)ccc1Nc1ncc(Cl)c(Nc2ccccc2P(C)(C)=O)n1 [spirocyclic aryl phosphorus oxide]", 279),
]
